Origin of the recorded values: paper PMC8809517

- assayed-target: T1, GFP-9S library array, motif 4 ND N98M;D124Y (synthetic construct, N98M;D124Y)
- T1 chain: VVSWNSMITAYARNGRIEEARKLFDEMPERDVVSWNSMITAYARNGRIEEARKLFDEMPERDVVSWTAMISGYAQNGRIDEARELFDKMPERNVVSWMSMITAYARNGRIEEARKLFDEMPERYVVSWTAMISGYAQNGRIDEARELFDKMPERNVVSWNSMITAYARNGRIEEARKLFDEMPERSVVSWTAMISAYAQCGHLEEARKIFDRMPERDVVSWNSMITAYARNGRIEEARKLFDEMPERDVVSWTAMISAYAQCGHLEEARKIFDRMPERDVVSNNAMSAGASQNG
- assay-overview: high-throughput RNA pulldown from lysate on Ni-NTA beads; HRP: 50 mM Tris pH 8, 150 mM NaCl, 1 mM beta-mercaptoethanol, 50 ug/ml BSA, 3 ug/ml yeast RNA, 0.5% heparin; ITC and FP: Tris pH 8, 200 mM KCl, 5% glycerol; MST: 50 mM Tris pH 8, 200 mM NaCl, 1 mM DTT, BSA, heparin, 0.05% Tween 20
- measurement-conditions: tags: N-terminal His-eGFP; label: 5' Cy5
measurement-label: Kd (nM)

- AUUAGACGUGA (ssRNA) [Cy5-rpoA-G]: 167
- AUUACACGUGA (ssRNA) [Cy5-rpoA]: 216
